Target: Kappa-type opioid receptor (Homo sapiens)
Sequence (P41145 whole entry): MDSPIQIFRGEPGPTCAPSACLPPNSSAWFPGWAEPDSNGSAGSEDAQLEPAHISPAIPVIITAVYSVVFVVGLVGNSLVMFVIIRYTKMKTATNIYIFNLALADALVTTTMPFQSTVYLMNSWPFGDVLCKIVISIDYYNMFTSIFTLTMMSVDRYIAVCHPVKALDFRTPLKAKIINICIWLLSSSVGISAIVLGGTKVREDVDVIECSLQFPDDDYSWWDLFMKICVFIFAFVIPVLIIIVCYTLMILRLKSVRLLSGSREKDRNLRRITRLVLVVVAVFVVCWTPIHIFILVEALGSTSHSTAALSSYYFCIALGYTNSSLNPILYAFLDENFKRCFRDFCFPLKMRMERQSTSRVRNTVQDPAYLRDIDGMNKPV
Experiment: Agonist activity at human KOR expressed in CHO-K1 cells co-expressing G-alpha15 by calcium mobilization assay
Assay type: functional, cell-based
pEC50: −log10 of the molar value.
Result Type: pEC50

structure=NC(=O)[C@H]1CCCN1C(=O)[C@@H]1CC(=O)NCCCC[C@@H](NC(=O)[C@@H](N)Cc2ccc(O)cc2)C(=O)NCC(=O)N[C@@H](Cc2ccccc2)C(=O)N1 reported_value=5.55

---

Biological target: Mu-type opioid receptor (Homo sapiens, UniProt P35372)
Sequence (P35372 whole entry): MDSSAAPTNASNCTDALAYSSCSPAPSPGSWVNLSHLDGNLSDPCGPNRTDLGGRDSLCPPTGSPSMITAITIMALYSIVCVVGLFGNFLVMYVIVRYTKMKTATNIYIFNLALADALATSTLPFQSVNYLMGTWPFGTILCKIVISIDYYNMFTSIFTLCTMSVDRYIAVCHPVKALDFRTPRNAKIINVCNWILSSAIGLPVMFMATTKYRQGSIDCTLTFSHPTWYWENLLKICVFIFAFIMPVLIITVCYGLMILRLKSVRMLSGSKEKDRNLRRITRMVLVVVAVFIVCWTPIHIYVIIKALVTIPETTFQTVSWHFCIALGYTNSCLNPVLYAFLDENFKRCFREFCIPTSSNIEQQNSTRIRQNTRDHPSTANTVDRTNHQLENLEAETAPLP
Test: Agonist activity at human MOR expressed in CHO-K1 cells co-expressing G-alpha15 by calcium mobilization assay
Format: functional, cell-based
Settings: cho-k1
pEC50: −log10 of the molar value.
Result Type: pEC50

structure=NC(=O)[C@H]1CCCN1C(=O)[C@@H]1CC(=O)NCCCC[C@@H](NC(=O)[C@@H](N)Cc2ccc(O)cc2)C(=O)NCC(=O)N[C@@H](CC2CCCCC2)C(=O)N1 reported_value=7.36
structure=CC1(C)NC(=O)[C@H](NC(=O)[C@@H](N)Cc2ccc(O)cc2)CCCCNC(=O)C[C@@H](C(=O)N2CCC[C@@H]2C(N)=O)NC(=O)[C@H](Cc2ccccc2)NC1=O reported_value=8.28
structure=NC(=O)[C@H]1CCCN1C(=O)[C@@H]1CC(=O)NCCCC[C@@H](NC(=O)[C@@H](N)Cc2ccc(O)cc2)C(=O)NCC(=O)N[C@@H](Cc2ccc(F)cc2)C(=O)N1 reported_value=9.05
structure=NC(=O)[C@H]1CCCN1C(=O)[C@@H]1CC(=O)NCCCC[C@@H](NC(=O)[C@@H](N)Cc2ccc(O)cc2)C(=O)NCC(=O)N(Cc2ccccc2)CC(=O)N1 reported_value=7.44
structure=NC(=O)[C@H]1CCCN1C(=O)[C@@H]1CC(=O)NCCCC[C@@H](NC(=O)[C@@H](N)Cc2ccc(O)cc2)C(=O)NCC(=O)N[C@@H](CCc2ccccc2)C(=O)N1 reported_value=6.74
structure=NC(=O)[C@H]1CCCN1C(=O)[C@@H]1CC(=O)NCCCC[C@@H](NC(=O)[C@@H](N)Cc2ccc(O)cc2)C(=O)NCCC(=O)N[C@@H](Cc2ccccc2)C(=O)N1 reported_value=6.01

---

Biological target: Mu-type opioid receptor (Homo sapiens, UniProt P35372)
Assay: Agonist activity at human MOR expressed in CHO-K1 cells co-expressing G-alpha15 by calcium mobilization assay relative to control
Assay type: functional, cell-based
Conditions: filed as agonist
Result Type: Emax (%)

structure=NC(=O)[C@@H]1CCCN1C(=O)[C@H]1CC(=O)NCCCC[C@@H](NC(=O)[C@@H](N)Cc2ccc(O)cc2)C(=O)NCC(=O)N[C@H](Cc2ccccc2)C(=O)N1 units_label=% reported_value=104
structure=NC(=O)[C@@H]1CCCN1C(=O)[C@H]1CC(=O)NCCCC[C@@H](NC(=O)[C@@H](N)Cc2ccc(O)cc2)C(=O)NCC(=O)N(Cc2ccccc2)CC(=O)N1 units_label=% reported_value=113
structure=NC(=O)[C@@H]1CCCN1C(=O)[C@H]1CC(=O)NCCCC[C@@H](NC(=O)[C@@H](N)Cc2ccc(O)cc2)C(=O)NCC(=O)N[C@@H](Cc2ccc3ccccc3c2)C(=O)N1 units_label=% reported_value=98.6
structure=CN1CC(=O)N[C@@H](Cc2ccccc2)C(=O)N[C@@H](C(=O)N2CCC[C@H]2C(N)=O)CC(=O)NCCCC[C@@H](NC(=O)[C@@H](N)Cc2ccc(O)cc2)C1=O units_label=% reported_value=118
structure=NC(=O)[C@@H]1CCCCN1C(=O)[C@H]1CC(=O)NCCCC[C@@H](NC(=O)[C@@H](N)Cc2ccc(O)cc2)C(=O)NCC(=O)N[C@@H](Cc2ccccc2)C(=O)N1 units_label=% reported_value=107
structure=C[C@@H]1NC(=O)[C@H](NC(=O)[C@@H](N)Cc2ccc(O)cc2)CCCCNC(=O)C[C@H](C(=O)N2CCC[C@H]2C(N)=O)NC(=O)[C@H](Cc2ccccc2)NC1=O units_label=% reported_value=93.7
structure=CCCC[C@@H]1NC(=O)[C@H](NC(=O)[C@@H](N)Cc2ccc(O)cc2)CCCCNC(=O)C[C@H](C(=O)N2CCC[C@H]2C(N)=O)NC(=O)[C@H](Cc2ccccc2)NC1=O units_label=% reported_value=88.6
structure=Cc1cc(O)cc(C)c1C[C@H](N)C(=O)N[C@@H]1CCCCNC(=O)C[C@H](C(=O)N2CCC[C@H]2C(N)=O)NC(=O)[C@H](Cc2ccccc2)NC(=O)CNC1=O units_label=% reported_value=101
